Reference source for all entries: ChEMBL document CHEMBL4483862

Test system: Plasmodium berghei
Assay: Luciferase/luciferin-expressing antifolate-resistant parasites were used to infect a culture of HepG2 cells that were pre-incubated with compounds. Infected hepatocytes emit light due to the luciferase reaction. Assay results are presented as the percent inhibition of light emission compared to control. […]
Assay type: functional
Settings: sporozoite, FFLUC_HILL_SLOPE 1.67, FFLUC_R_SQUARED 0.624, read-out: LUCIFERASE INFECTION ASSAY - IC50
Result type: IC50

Recall and state the measured IC50 for CCc1cccc(Nc2nc3ccccc3s2)c1 .
> 10 µM

----------
Tested on: Plasmodium berghei
Test: Luciferase/luciferin-expressing antifolate-resistant parasites were used to infect a culture of HepG2 cells that were pre-incubated with compounds. Infected hepatocytes emit light due to the luciferase reaction. Assay results are presented as the percent inhibition of light emission compared to control. […]
Format: functional
Conditions: sporozoite, PBLUC_HILL_SLOPE 2.57, PBLUC_R_SQUARED 0.68, read-out: LUCIFERASE INFECTION ASSAY - IC50
Result type: IC50 (nM)
Kindly answer with a numeric value in nM, unit omitted.

Recall and state the measured IC50 for CCn1nc(C(=O)NCc2ccc(OC)cc2)c2c1CCN(C(=O)c1cc(C)n[nH]1)C2 .
1570

----------
System: Plasmodium berghei
Test: Luciferase/luciferin-expressing antifolate-resistant parasites were used to infect a culture of HepG2 cells that were pre-incubated with compounds. Infected hepatocytes emit light due to the luciferase reaction. Assay results are presented as the percent inhibition of light emission compared to control. […]
Type: functional
Conditions: sporozoite, read-out: LUCIFERASE INFECTION ASSAY - IC90
Result type: IC90

CCNC(=O)C(C)Nc1ncnc2scc(-c3ccc(OC)cc3)c12 (stereo not given) : 9.59 µM
CCc1ccc2nc(NC(=O)c3nccnc3N)sc2c1 : > 10 µM
O=S(=O)(c1ccccc1)c1nc(/C=C/c2ccccc2)oc1NCc1ccco1 : > 10 µM
O=C(O)c1cc(N/N=C(\c2ccncc2)c2ccc([N+](=O)[O-])cc2)cc(C(=O)O)c1 : > 10 µM

Pending molecule:
Recall and state the measured IC90 for Cc1cc(=O)[nH]c(SCC(=O)c2cc(C)n(-c3ccccc3)c2C)c1C#N .
> 10 µM

----------
Tested on: Plasmodium berghei
Test: Luciferase/luciferin-expressing antifolate-resistant parasites were used to infect a culture of HepG2 cells that were pre-incubated with compounds. Infected hepatocytes emit light due to the luciferase reaction. Assay results are presented as the percent inhibition of light emission compared to control. […]
Type: functional
Conditions: sporozoite, FFLUC_HILL_SLOPE 8.65, FFLUC_R_SQUARED 0.47, PBLUC_HILL_SLOPE 2.15, PBLUC_R_SQUARED 0.511, read-out: LUCIFERASE INFECTION ASSAY - IC50
Result type: IC50 (µM)
Kindly answer with a numeric value in µM, unit omitted.

Recall and state the measured IC50 for O=C(Cn1ncc(Cl)c(Cl)c1=O)Nc1cccc(Oc2ccccc2)c1 .
6.79

----------
Test system: Plasmodium berghei
Assay: Luciferase/luciferin-expressing antifolate-resistant parasites were used to infect a culture of HepG2 cells that were pre-incubated with compounds. Infected hepatocytes emit light due to the luciferase reaction. Assay results are presented as the percent inhibition of light emission compared to control. […]
Type: functional
Conditions: sporozoite, PBLUC_HILL_SLOPE 2.08, PBLUC_R_SQUARED 0.24, read-out: LUCIFERASE INFECTION ASSAY - IC50
Result type: IC50 (µM)
Kindly answer with a numeric value in µM, unit omitted.

Recall and state the measured IC50 for CSc1cccc(N2C(=O)C=C(C)C2=O)c1 .
13.4
